All figures here come from PubChem BioAssay AID651687.

# EXPERIMENT DESCRIPTION: inhibitors of PGC1a acetylation signal, primary screen, cell-based, U2OS, AlphaScreen, inhibitor mode (AID 651687);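 note: 0% = neutral control wells and 100% = positive control wells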
# STATED CONDITIONS: AlphaScreen anti-acetyl-lysine, at 15.6 µM, active compounds read high
Screen size: about 350,000 compounds; about 600 (0.17%) were called active. The sample as a whole holds a higher share of actives than the screen did.
READOUT TYPE: inhibition (%)

compound="O=C(c1ccccc1)C(O)(CN1CCCCC1)c1ccccc1 (stereo not drawn)" readout_type=inhibition unit_name=% assay_value=-2.16
compound="COC(=O)C(c1ccccc1)N1CCCCCC1 (stereo not drawn)" readout_type=inhibition unit_name=% assay_value=5.94
compound=COC(=O)C1=C(c2ccc(OCc3ccccc3)cc2)C[C@@H]2CC[C@H]1N2C(=O)NCc1cccc(F)c1 readout_type=inhibition unit_name=% assay_value=-39.8
compound="O=c1[nH]c2ccccc2n1C1CCN(C(c2ccccc2)c2nnnn2Cc2ccccc2)CC1 (stereo not drawn)" readout_type=inhibition unit_name=% assay_value=10.6
compound=O=C(Cc1ccncc1)N1CCCCN2[C@H](CO)[C@@H](c3ccc(C#CC4(O)CCCC4)cc3)[C@H]2C1 readout_type=inhibition unit_name=% assay_value=-7.38
compound=COC(=O)C[C@@H]1CC[C@@H]2NC[C@@H](O)COC[C@H]2O1 readout_type=inhibition unit_name=% assay_value=-2.11
compound=N#Cc1cccc(-c2ccc([C@H]3[C@@H](CO)N4CCCCN(C(=O)Cc5cccnc5)C[C@@H]34)cc2)c1 readout_type=inhibition unit_name=% assay_value=-1.39
compound="CCC(C)(O)C(=O)OC1C(=O)OC2CC3C(C)=CC(=O)C(O)C3(C)C3C4(O)OCC23C1C(C)C4O (stereo not drawn)" readout_type=inhibition unit_name=% assay_value=80
